# experiment.summary: molar heat capacity at constant pressure
# condition.details: 460 K; 101.33 kPa; Liquid; Small sample (50 mg) DSC
readout.label: molar heat capacity at constant pressure (J/K/mol)
The figure you give is taken to be in J/K/mol; do not add the unit.

Look over these answered cases.
compound	molar heat capacity at constant pressure / J/K/mol
c1ccc2c(c1)OCCOCCOCCOc1ccccc1OCCOCCOCCO2 [dibenzo-24-crown-8]	1003.2
c1ccc2c(c1)OCCOCCOc1ccccc1OCCOCCO2 [dibenzo[b,k][1,4,7,10,13,16]hexaoxacyclooctadecane]	772.5
C1COCCOCCOCCOCCOCCO1 [1,4,7,10,13,16-hexaoxacyclooctadecane]	607.7

For the next question, use this compound.
Param item = c1ccc2c(c1)OCCOCCOCCOCCOc1ccccc1OCCOCCOCCOCCO2 [dibenzo-30-crown-10] ; retrieve measured molar heat capacity at constant pressure.
1201.6
